// provenance: patent US20230348603A1

Catalogue of koff readings, one per entry.
Target: T1, Human VSIG4-L-His (human, UniProt Q9Y279 20-283)
T1 construct: long isoform ECD with His tag; also called hVSIG4-L
T1 sequence: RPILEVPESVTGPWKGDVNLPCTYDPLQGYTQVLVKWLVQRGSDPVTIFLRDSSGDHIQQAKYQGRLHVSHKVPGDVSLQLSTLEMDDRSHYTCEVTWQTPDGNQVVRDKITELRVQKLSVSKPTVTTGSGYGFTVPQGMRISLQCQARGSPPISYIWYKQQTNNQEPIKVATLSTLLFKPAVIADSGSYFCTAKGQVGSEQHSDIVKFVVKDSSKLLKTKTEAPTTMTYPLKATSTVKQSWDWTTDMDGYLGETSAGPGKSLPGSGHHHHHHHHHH
Assay: SPR (Biacore T200), Fab P.E. 1:5 over immobilised antigen
The reply should contain only the number, in s⁻¹.

Example entries and their recorded answers appear below.
response.value for 16E10 mouse Fab (periplasmic extract) (Fab, V domains shown, mouse Fab with C-terminal His6-c-myc tag) VH: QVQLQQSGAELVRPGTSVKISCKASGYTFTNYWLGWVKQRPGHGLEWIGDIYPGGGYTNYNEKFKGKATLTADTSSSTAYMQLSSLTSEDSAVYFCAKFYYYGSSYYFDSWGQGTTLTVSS VL: DIVLTQSPSSLSVSAGEKVTLSCKSSQSLLNSGNQENYLAWYQQKPGQPPKLLIYGASTRESGVPDRFTGSGSGTDFTLTISSVQAEDLAVYYCQNDHSYPLTFGAGTKLELK (field: koff) = 0.025

response.value for 12A12 mouse Fab (periplasmic extract) (Fab, V domains shown, mouse Fab with C-terminal His6-c-myc tag) VH: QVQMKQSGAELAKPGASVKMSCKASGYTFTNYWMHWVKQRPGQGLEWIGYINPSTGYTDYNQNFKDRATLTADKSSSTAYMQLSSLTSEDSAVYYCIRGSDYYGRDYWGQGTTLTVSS VL: DIQMTQTTSSLSASLGDRVTISCRASQDISNYLNWYQQKPDGTLKLLIYYTSRLHSGVPSRFSGSGSGTDYSLTISNLEQEDIATYFCRQGNTLPWTFGGGTKLEIK (field: koff) = 0.0038

Next:
response.value for 14C05 mouse Fab (periplasmic extract) (Fab, V domains shown, mouse Fab with C-terminal His6-c-myc tag) VH: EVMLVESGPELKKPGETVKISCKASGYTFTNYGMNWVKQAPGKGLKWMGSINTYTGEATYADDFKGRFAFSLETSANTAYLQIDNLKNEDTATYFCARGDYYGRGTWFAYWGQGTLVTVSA VL: ETTVTQSHKFMSTSVGDRVSITCKASQDVSTAVAWYQQKPGQSPKLLIYSASYRYPGVPDRFTGSGSGTDFTFTISSVQAEDLAVYYCQQDYSSPWTFGGGTKLEIK (field: koff) = 0.00037
